Assay: Ratio of free drug level in brain to plasma of CD-1 mouse at 3 mg/kg, iv and 10 mg/kg, po measured at 1 hr post dose
Type: ADME, organism-based
Conditions: read-out: BPR
Let's look at some molecules and their measured Kp uu at 1 h.
Number only, no unit.

Some molecules with recorded Kp uu at 1 h:
> print(dat)
                                   molecule  assay.readout  reported.measurement
1  C[C@]12CCCO[C@@H]1[C@]1(COC(N)=N1)c1cc(-c3cccc(C#N)c3)ccc1O2 (racemic)   Kp uu at 1 h                  0.24
2  CN1C(=O)[C@]2(N=C1N)c1cc(-c3cccnc3F)ccc1O[C@H]1CCCO[C@@H]12 (relative stereo)   Kp uu at 1 h                 0.014

Now consider a different molecule.
Query string: Could you share which Kp uu at 1 h value was measured for C[C@]12CCCO[C@@H]1[C@]1(COC(N)=N1)c1cc(-c3cccnc3F)ccc1O2 (relative stereo) ?
Result string: 0.16

====

Test system: MDR1 (human)
Test: Efflux ratio of permeability from basolateral to apical side to apical to basolateral side in pig LLC-PK1 cells transfected with human MDR1 at 1 uM
Assay type: ADME, cell-based, Sus scrofa
Conditions: LLC-PK1
// reported efflux ratio at 1 µM per item
Just the number.

Query string: Entry C[C@]12CCCO[C@@H]1[C@]1(COC(N)=N1)c1cc(-c3cncnc3)ccc1O2 (single isomer, unassigned) : reported efflux ratio at 1 µM = ?
Result string: 9.8

Query string: For the compound C[C@]12CCCO[C@@H]1[C@]1(CSC(N)=N1)c1cc(-c3cncnc3)ccc1O2 (relative stereo) , what efflux ratio at 1 µM is on record?
Result string: 3.1

Query string: Please give the measured efflux ratio at 1 µM for this compound: C[C@]12CCCO[C@@H]1[C@]1(CSC(N)=N1)c1cc(-c3cc(F)cc(Cl)c3)ccc1O2 (relative stereo)
Result string: 1.2

Query string: Requested field: efflux ratio at 1 µM. Item: C[C@]12CCCO[C@@H]1[C@]1(CSC(N)=N1)c1cc(-c3cccc(C#N)c3)ccc1O2 (relative stereo)
Result string: 1.8

Query string: If you can, please state the reported efflux ratio at 1 µM value of C[C@]12CCCO[C@@H]1[C@]1(COC(N)=N1)c1cc(-c3cccnc3F)ccc1O2 (relative stereo) .
Result string: 6.2

Query string: Recorded efflux ratio at 1 µM for C[C@]12CCCO[C@@H]1[C@]1(COC(N)=N1)c1cc(-c3cc(F)cc(Cl)c3)ccc1O2 (relative stereo) , please?
Result string: 1.7

Query string: Requested read-out: efflux ratio at 1 µM. Entry: CN1C(=O)[C@]2(N=C1N)c1cc(-c3cccnc3F)ccc1O[C@H]1CCCO[C@@H]12 (relative stereo)
Result string: 31

====

System: Brain
Test: Free drug level in CD-1 mouse brain at 3 mg/kg, iv and 10 mg/kg, po measured at 1 hr post dose
Type: ADME, organism-based
Settings: in vivo
Reported Drug uptake values are given for each entry in this list.
Please give a number only; it is taken to be in nM.

Worked examples follow.
> print(dat)
                                   compound  reported.measurement
1  CN1C(=O)[C@]2(N=C1N)c1cc(-c3cccnc3F)ccc1O[C@H]1CCOC[C@@H]12                    11
2  CN1C(=O)[C@]2(N=C1N)c1cc(-c3cccnc3F)ccc1O[C@H]1CCCO[C@@H]12 (relative stereo)                   1.7
3  C[C@]12CCCO[C@@H]1[C@]1(COC(N)=N1)c1cc(-c3cccc(C#N)c3)ccc1O2 (racemic)                    13

Kindly review the next compound as well.
Query string: Which Drug uptake reading was recorded for the compound C[C@]12CCCO[C@@H]1[C@]1(COC(N)=N1)c1cc(-c3cccnc3F)ccc1O2 (relative stereo) ?
Result string: 6

====

Experiment: Ratio of free drug level in brain to plasma of Sprague-Dawley rat at 60 mg/kg, po measured at 5 hrs post dose
Type: ADME, organism-based
Design: dose 60 mg/kg, route oral
Conditions: brain and plasma, read-out: BPR
Assay readout: Kp uu at 5 h
Reply with just the number.

Query string: Sample C[C@]12CCCO[C@@H]1[C@]1(COC(N)=N1)c1cc(-c3cccc(C#N)c3)ccc1O2 — what was its Kp uu at 5 h?
Result string: 0.32

====

Molecular target: Beta-secretase 1 (Homo sapiens)
Sequence (P56817 whole entry): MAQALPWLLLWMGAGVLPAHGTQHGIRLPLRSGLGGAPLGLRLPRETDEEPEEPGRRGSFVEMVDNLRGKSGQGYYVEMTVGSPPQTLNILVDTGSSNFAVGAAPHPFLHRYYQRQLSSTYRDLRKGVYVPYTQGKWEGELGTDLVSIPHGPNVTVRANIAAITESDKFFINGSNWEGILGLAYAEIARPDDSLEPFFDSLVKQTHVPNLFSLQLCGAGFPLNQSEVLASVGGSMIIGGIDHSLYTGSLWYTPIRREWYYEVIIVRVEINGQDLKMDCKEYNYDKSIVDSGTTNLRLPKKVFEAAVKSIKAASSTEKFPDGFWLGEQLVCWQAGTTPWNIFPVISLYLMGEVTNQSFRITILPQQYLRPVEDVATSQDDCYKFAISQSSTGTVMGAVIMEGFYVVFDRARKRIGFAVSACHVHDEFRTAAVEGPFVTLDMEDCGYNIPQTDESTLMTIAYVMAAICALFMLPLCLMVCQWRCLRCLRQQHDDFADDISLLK
Assay: Inhibition of purified recombinant human BACE1 expressed in CHO cells assessed as uncleaved biotinylated sAPP after 2 hrs by HTRF assay
Below: a set of entries, each annotated with reported IC50.

> print(dat)
                                   molecule  reported.measurement
1  C[C@]12CCCO[C@@H]1[C@]1(CSC(N)=N1)c1cc(-c3cncnc3)ccc1O2 (relative stereo)                 56 nM
2  C[C@]12CCCO[C@@H]1[C@]1(COC(N)=N1)c1cc(-c3cccc(C#N)c3)ccc1O2                 45 nM

--- query ---
Query string: # lookup: IC50 of NC1=N[C@@]2(CO1)c1cc(-c3cccnc3F)ccc1O[C@@H]1CCCO[C@H]12
Result string: 1100 nM

====

Assay: Fraction unbound in CD-1 mouse plasma
Assay type: ADME, cell-free
Assay readout: fraction unbound
Format: numeric value only, no unit, no commentary.

Here are 2 compounds together with their reported answers.
> print(dat)
                                   compound  reported.measurement
1  C[C@]12CCCO[C@@H]1[C@]1(COC(N)=N1)c1cc(-c3cccc(C#N)c3)ccc1O2 (racemic)                 0.039
2  CN1C(=O)[C@]2(N=C1N)c1cc(-c3cccnc3F)ccc1O[C@H]1CCCO[C@@H]12 (relative stereo)                  0.18

# input for lookup
Query string: Which fraction unbound value belongs to C[C@]12CCCO[C@@H]1[C@]1(COC(N)=N1)c1cc(-c3cccnc3F)ccc1O2 (relative stereo) ?
Result string: 0.11

====

Item-by-item account of clearance
Test: Systemic clearance in CD-1 mouse at 3 mg/kg, iv and 10 mg/kg, po
Assay type: ADME, organism-based
Conditions: in vivo, read-out: CLH

> print(dat)
                                   compound  assay.readout  reported.measurement
1  C[C@]12CCCO[C@@H]1[C@]1(COC(N)=N1)c1cc(-c3cccc(C#N)c3)ccc1O2 (racemic)      clearance          34 mL/min/kg
2  C[C@]12CCCO[C@@H]1[C@]1(COC(N)=N1)c1cc(-c3cccnc3F)ccc1O2 (relative stereo)      clearance         150 mL/min/kg
3  CN1C(=O)[C@]2(N=C1N)c1cc(-c3cccnc3F)ccc1O[C@H]1CCCO[C@@H]12 (relative stereo)      clearance         110 mL/min/kg

Query string: Please give the measured clearance for this compound: CN1C(=O)[C@]2(N=C1N)c1cc(-c3cccnc3F)ccc1O[C@H]1CCOC[C@@H]12
Result string: 70 mL/min/kg

====

Assay: Ratio of free drug level in brain to plasma of Sprague-Dawley rat at 60 mg/kg, po measured at 3 hrs post dose
Assay type: ADME, organism-based
Design: dose 60 mg/kg, route oral
Details: brain and plasma, read-out: BPR
Assay readout: Kp uu at 3 h
Number, no unit, nothing else.

Query string: Fill in: Kp uu at 3 h of C[C@]12CCCO[C@@H]1[C@]1(COC(N)=N1)c1cc(-c3cccc(C#N)c3)ccc1O2 is ___
Result string: 0.33

====

Test system: Plasma
Test: Free plasma concentration in CD-1 mouse at 3 mg/kg, iv and 10 mg/kg, po measured at 4 hrs post dose
Format: ADME, organism-based
Details: in vivo
Assay readout: Cp(f) (nM)
Kindly answer with a numeric value in nM, unit omitted.

Please review the following examples before continuing.
> print(dat)
                                   compound  measurement.target  unit.tag  reported.measurement
1  CN1C(=O)[C@]2(N=C1N)c1cc(-c3cccnc3F)ccc1O[C@H]1CCOC[C@@H]12              Plasma        nM                    75
2  CN1C(=O)[C@]2(N=C1N)c1cc(-c3cccnc3F)ccc1O[C@H]1CCCO[C@@H]12 (relative stereo)              Plasma        nM                    36
3  C[C@]12CCCO[C@@H]1[C@]1(COC(N)=N1)c1cc(-c3cccc(C#N)c3)ccc1O2 (racemic)              Plasma        nM                    35

Now look at this entry.
Query string: Short answer please: Cp(f), Plasma, entry C[C@]12CCCO[C@@H]1[C@]1(COC(N)=N1)c1cc(-c3cccnc3F)ccc1O2 (relative stereo)
Result string: 6.8
